Origin of values: paper PMC11944670

Assay: in vivo
Parameters: species or system mice
Settings: male, SCID, mouse, iv, total radioactivity, Tumor/Stomach ratio
Residues, ends and D or L forms follow the SMILES beside them. *: point of attachment. DOTA = O=C(O)CN1CCN(CC(=O)O)CCN(CC(=O)*)CCN(CC(=O)O)CC1; X1 = Cc1ccc(CCCC(=O)NCCOCCOCCOCCOCC(=O)*)cc1; βAla = NCCC(=O)O
READOUT: tissue to tissue ratio at 4 h

[
  {
    "COMPOUND": "CC[C@H](C)[C@H](NC(=O)[C@H](Cc1ccc(O)cc1)NC(=O)[C@@H]1CCCN1C(=O)[C@H](CCCNC(=N)N)NC(=O)[C@H](CCCNC(=N)N)NC(=O)[C@H](CCCCNC(=O)COCCOCCOCCOCCNC(=O)CCCc1ccc(C)cc1)NC(=O)CCNC(=O)CCNC(=O)CCNC(=O)CN1CCN(CC(=O)O)CCN(CC(=O)O)CCN(CC(=O)O)CC1)C(=O)N[C@@H](CC(C)C)C(=O)O [[^67Ga]Ga-DT14D, metal not drawn] ({DOTA-βAla-βAla-βAla}-K(X1)RRPYIL-OH)",
    "READOUT": "tissue to tissue ratio at 4 h",
    "OBSERVED RESULT": 9.96
  }
]

---

Assay: in vivo
Parameters: species or system mice
Settings: male, SCID, mouse, iv, 730 kBq, total radioactivity, Biodistribution, Muscle
Residues, ends and D or L forms follow the SMILES beside them. *: point of attachment. DOTA = O=C(O)CN1CCN(CC(=O)O)CCN(CC(=O)*)CCN(CC(=O)O)CC1; X1 = Cc1ccc(CCCC(=O)NCCOCCOCCOCCOCC(=O)*)cc1; βAla = NCCC(=O)O
READOUT: tissue uptake at 48 h (%ID/g)

[
  {
    "COMPOUND": "CC[C@H](C)[C@H](NC(=O)[C@H](Cc1ccc(O)cc1)NC(=O)[C@@H]1CCCN1C(=O)[C@H](CCCNC(=N)N)NC(=O)[C@H](CCCNC(=N)N)NC(=O)[C@H](CCCCNC(=O)COCCOCCOCCOCCNC(=O)CCCc1ccc(C)cc1)NC(=O)CCNC(=O)CCNC(=O)CCNC(=O)CN1CCN(CC(=O)O)CCN(CC(=O)O)CCN(CC(=O)O)CC1)C(=O)N[C@@H](CC(C)C)C(=O)O [[^177Lu]Lu-DT14D, metal not drawn] ({DOTA-βAla-βAla-βAla}-K(X1)RRPYIL-OH)",
    "READOUT": "tissue uptake at 48 h",
    "UNIT": "%ID/g",
    "OBSERVED RESULT": 0.04
  }
]

---

Assay: in vivo
Set-up: species or system mice
Conditions: male, SCID, mouse, iv, 730 kBq, total radioactivity, Tumor/Spleen ratio
Residues, ends and D or L forms follow the SMILES beside them. *: point of attachment. DOTA = O=C(O)CN1CCN(CC(=O)O)CCN(CC(=O)*)CCN(CC(=O)O)CC1; X1 = Cc1ccc(CCCC(=O)NCCOCCOCCOCCOCC(=O)*)cc1; βAla = NCCC(=O)O

[
  {
    "COMPOUND": "CC[C@H](C)[C@H](NC(=O)[C@H](Cc1ccc(O)cc1)NC(=O)[C@@H]1CCCN1C(=O)[C@H](CCCNC(=N)N)NC(=O)[C@H](CCCNC(=N)N)NC(=O)[C@H](CCCCNC(=O)COCCOCCOCCOCCNC(=O)CCCc1ccc(C)cc1)NC(=O)CCNC(=O)CCNC(=O)CCNC(=O)CN1CCN(CC(=O)O)CCN(CC(=O)O)CCN(CC(=O)O)CC1)C(=O)N[C@@H](CC(C)C)C(=O)O [[^177Lu]Lu-DT14D, metal not drawn] ({DOTA-βAla-βAla-βAla}-K(X1)RRPYIL-OH)",
    "tissue to tissue ratio at 72 h": 0.89
  }
]

---

Assay: in vivo
Design: species or system mice
Conditions: male, SCID, mouse, iv, 730 kBq, total radioactivity, Tumor/Stomach ratio
Residues, ends and D or L forms follow the SMILES beside them. *: point of attachment. DOTA = O=C(O)CN1CCN(CC(=O)O)CCN(CC(=O)*)CCN(CC(=O)O)CC1; X1 = Cc1ccc(CCCC(=O)NCCOCCOCCOCCOCC(=O)*)cc1; βAla = NCCC(=O)O
READOUT: tissue to tissue ratio at 48 h

[
  {
    "MOLECULE": "CC[C@H](C)[C@H](NC(=O)[C@H](Cc1ccc(O)cc1)NC(=O)[C@@H]1CCCN1C(=O)[C@H](CCCNC(=N)N)NC(=O)[C@H](CCCNC(=N)N)NC(=O)[C@H](CCCCNC(=O)COCCOCCOCCOCCNC(=O)CCCc1ccc(C)cc1)NC(=O)CCNC(=O)CCNC(=O)CCNC(=O)CN1CCN(CC(=O)O)CCN(CC(=O)O)CCN(CC(=O)O)CC1)C(=O)N[C@@H](CC(C)C)C(=O)O [[^177Lu]Lu-DT14D, metal not drawn] ({DOTA-βAla-βAla-βAla}-K(X1)RRPYIL-OH)",
    "READOUT": "tissue to tissue ratio at 48 h",
    "OBSERVED RESULT": 23.8
  }
]

---

Experiment: in vivo
Parameters: species or system mice
Conditions: male, SCID, mouse, iv, total radioactivity, Tumor/Kidneys ratio
Residues, ends and D or L forms follow the SMILES beside them. *: point of attachment. DOTA = O=C(O)CN1CCN(CC(=O)O)CCN(CC(=O)*)CCN(CC(=O)O)CC1; X1 = Cc1ccc(CCCC(=O)NCCOCCOCCOCCOCC(=O)*)cc1; βAla = NCCC(=O)O
READOUT: tissue to tissue ratio at 24 h

[
  {
    "MOLECULE": "CC[C@H](C)[C@H](NC(=O)[C@H](Cc1ccc(O)cc1)NC(=O)[C@@H]1CCCN1C(=O)[C@H](CCCNC(=N)N)NC(=O)[C@H](CCCNC(=N)N)NC(=O)[C@H](CCCCNC(=O)COCCOCCOCCOCCNC(=O)CCCc1ccc(C)cc1)NC(=O)CCNC(=O)CCNC(=O)CCNC(=O)CN1CCN(CC(=O)O)CCN(CC(=O)O)CCN(CC(=O)O)CC1)C(=O)N[C@@H](CC(C)C)C(=O)O [[^111In]In-DT14D, metal not drawn] ({DOTA-βAla-βAla-βAla}-K(X1)RRPYIL-OH)",
    "READOUT": "tissue to tissue ratio at 24 h",
    "OBSERVED RESULT": 1.66
  }
]

---

Test: in vivo
Design: species or system mice
Conditions: male, SCID, mouse, iv, total radioactivity, Tumor/Pancreas ratio
Residues, ends and D or L forms follow the SMILES beside them. *: point of attachment. DOTA = O=C(O)CN1CCN(CC(=O)O)CCN(CC(=O)*)CCN(CC(=O)O)CC1; X1 = Cc1ccc(CCCC(=O)NCCOCCOCCOCCOCC(=O)*)cc1; βAla = NCCC(=O)O

[
  {
    "MOLECULE": "CC[C@H](C)[C@H](NC(=O)[C@H](Cc1ccc(O)cc1)NC(=O)[C@@H]1CCCN1C(=O)[C@H](CCCNC(=N)N)NC(=O)[C@H](CCCNC(=N)N)NC(=O)[C@H](CCCCNC(=O)COCCOCCOCCOCCNC(=O)CCCc1ccc(C)cc1)NC(=O)CCNC(=O)CCNC(=O)CCNC(=O)CN1CCN(CC(=O)O)CCN(CC(=O)O)CCN(CC(=O)O)CC1)C(=O)N[C@@H](CC(C)C)C(=O)O [[^67Ga]Ga-DT14D, metal not drawn] ({DOTA-βAla-βAla-βAla}-K(X1)RRPYIL-OH)",
    "tissue to tissue ratio at 1 h": 8.09
  }
]

---

Test: in vivo
Set-up: species or system mice
Details: male, SCID, mouse, iv, total radioactivity, Biodistribution, Blood
Residues, ends and D or L forms follow the SMILES beside them. *: point of attachment. DOTA = O=C(O)CN1CCN(CC(=O)O)CCN(CC(=O)*)CCN(CC(=O)O)CC1; X1 = Cc1ccc(CCCC(=O)NCCOCCOCCOCCOCC(=O)*)cc1; βAla = NCCC(=O)O
READOUT: tissue uptake at 1 h

[
  {
    "COMPOUND": "CC[C@H](C)[C@H](NC(=O)[C@H](Cc1ccc(O)cc1)NC(=O)[C@@H]1CCCN1C(=O)[C@H](CCCNC(=N)N)NC(=O)[C@H](CCCNC(=N)N)NC(=O)[C@H](CCCCNC(=O)COCCOCCOCCOCCNC(=O)CCCc1ccc(C)cc1)NC(=O)CCNC(=O)CCNC(=O)CCNC(=O)CN1CCN(CC(=O)O)CCN(CC(=O)O)CCN(CC(=O)O)CC1)C(=O)N[C@@H](CC(C)C)C(=O)O [[^67Ga]Ga-DT14D, metal not drawn] ({DOTA-βAla-βAla-βAla}-K(X1)RRPYIL-OH)",
    "READOUT": "tissue uptake at 1 h",
    "OBSERVED RESULT": "9.52 %ID/g"
  }
]
